All figures here come from ChEMBL document CHEMBL1177682.

# System: SK-OV-3
# assay overview: Cytotoxicity against human SKOV3 cells under hypoxic condition after 5 days by SRB assay
# Format: functional, cell-based
# details: SK-OV-3, 120 h
Kindly supply the reported IC50 values for the records listed here.
Numbers only, in nM.

Worked examples, 4 compounds total:
{"columns": ["compound", "IC50 / nM"],
 "data": [
  ["CN(C)CCOc1ccc2[nH]c(C(=O)N3CC(CCl)c4c3cc([N+](=O)[O-])c3cc(S(=O)(=O)NO)ccc43)cc2c1 (stereo unspecified)", 450],
  ["CN(C)CCOc1ccc2[nH]c(C(=O)N3CC(CCl)c4c3cc([N+](=O)[O-])c3cc(N)ccc43)cc2c1 (stereo unspecified)", 1300],
  ["CNS(=O)(=O)c1ccc2c3c(cc([N+](=O)[O-])c2c1)N(C(=O)c1cc2cc(OCCN(C)C)ccc2[nH]1)CC3CCl (stereo unspecified)", 120],
  ["CN(C)CCOc1ccc2[nH]c(C(=O)N3CC(CCl)c4c3cc([N+](=O)[O-])c3cc(S(=O)(=O)N(C)C)ccc43)cc2c1 (stereo unspecified)", 210]
]}

Please state, for each entry, its recorded IC50.
1. CN(C)CCOc1ccc2[nH]c(C(=O)N3CC(CCl)c4c3cc([N+](=O)[O-])c3cc(S(=O)(=O)NN)ccc43)cc2c1 (stereo unspecified)
2. COc1cc2cc(C(=O)N3CC(CCl)c4c3cc([N+](=O)[O-])c3cc(C(=O)NCCN(C)C)ccc43)[nH]c2c(OC)c1OC (stereo unspecified)

Solution:
210
140
